Attribution: patent US20160355583A1

Biological target: T1, human BMP10 (Bone Morphogenetic Protein 10 Preproprotein [Homo sapiens], NP_055297) (human, UniProt O95393 317-424)
T1 construct: Bought recombinant protein; also called huBMP10; rhBMP10 (R&D Cat#2926-BP-025)
T1 sequence: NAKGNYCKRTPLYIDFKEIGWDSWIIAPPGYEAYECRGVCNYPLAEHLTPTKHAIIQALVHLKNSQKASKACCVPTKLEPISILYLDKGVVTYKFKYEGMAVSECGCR
Test: Table 7 (caption: MSD-SET; Example 6 describes Biacore SPR on immobilised rhBMP10, Fab 31.25-1000 nM)
Value Type: binding result

Binder	Value Measured
Antibody BMP9-6: MOR022965 (antibody, human IgG1, kappa, V domains shown, Fully human, phage display) VH: QVQLVQSGAEVKKPGSSVKVSCKASGGTFSSYAISWVRQAPGQGLEWMGHIIPHWGHARYAQKFQGRVTITADESTSTAYMELSSLRSEDTAVYYCARSASSLPHFHWFDYWGQGTLVTVSS VL: DIQMTQSPSSLSASVGDRVTITCRASQDINNYLNWYQQKPGKAPKLLIYAASRLQSGVPSRFSGSGSGTDFTLTISSLQPEDFATYYCQQRDTTPWTFGQGTKVEIKR	no binding
Antibody BMP9-9: MOR023796 (antibody, human IgG1, lambda, V domains shown, Fully human, phage display) VH: QVQLVQSGAEVKKPGSSVKVSCKASGGTFSDYAIHWVRQAPGQGLEWMGGIIPFFGTAYYAQKFQGRVTITADESTSTAYMELSSLRSEDTAVYYCARRIVSDSVAVQYRHAFDPWGQGTLVTVSS VL: QSVLTQPPSVSGAPGQRVTISCSGSSSNIGSNYVYWYQQLPGTAPKLLIYGNNNRPSGVPDRFSGSKSGTSASLAITGLQAEDEADYYCNAWDTKAYVWVFGGGTKLTVLG	no binding
Antibody BMP9-7: MOR023787 (antibody, human IgG1, lambda, V domains shown, Fully human, phage display) VH: QVQLVESGGGLVKPGGSLRLSCAASGFTFSSAWMSWVRQAPGKGLEWVGHIKSKTYGGTIDYAAPVKGRFTISRDDSKNTLYLQMNSLKTEDTAVYYCARVGGYYGYGYAFAYWGQGTLVTVSS VL: SYELTQPLSVSVALGQTARITCSGDNIGDKYVSWYQQKPGQAPVLVIYDDNKRPSGIPERFSGSNSGNTATLTISRAQAGDEADYYCSSTASKSFNVFGGGTKLTVLG	no binding
